# System: MC3T3 cells
# assay_comment: Live/Dead cytotoxicity assay
# Format: cell-based
# applied_conditions: subconfluent MC3T3 cells, 100μM, 3 days
measured_metric: fraction of living cells (live/dead staining)

>  <smiles_string>
Cc1cc(C)c(CNC(=O)c2cc(-c3ccc(N4CCN(C)CC4)nc3)cc3c2c(C)cn3C(C)C)c(=O)[nH]1

>  <result>
significant reductions

$$$$
>  <smiles_string>
CCCc1cc(C)[nH]c(=O)c1CNC(=O)c1cc(-c2ccc(N3CCN(C(C)C)CC3)nc2)cc2c1cnn2C(C)C

>  <result>
significant reductions

$$$$
>  <smiles_string>
CCS(=O)(=O)N1CCC([C@@H](C)n2c(C)c(C(=O)NCc3c(OC)cc(C)[nH]c3=O)c3ccccc32)CC1

>  <result>
not observed

$$$$
>  <smiles_string>
CCC(CC)n1ccc2c(C(=O)NCc3c(C)cc(C)[nH]c3=O)cc(C#N)cc21

>  <result>
not observed

$$$$
>  <smiles_string>
CC[C@H](C)n1cc(C)c2c(C(=O)NCc3c(C)cc(C)[nH]c3=O)cc(-c3ccc(N4CCNCC4)nc3)cc21

>  <result>
significant reductions

$$$$

## Input Request the reported fraction of living cells (live/dead staining) associated with CCN(c1cc(-c2ccc(CN3CCOCC3)cc2)cc(C(=O)NCc2c(C)cc(C)[nH]c2=O)c1C)C1CCOCC1
## Output significant reductions

## Input Request the reported fraction of living cells (live/dead staining) associated with Cc1cc(C)c(CN2CCc3c(Cl)cc(-c4c(C)noc4C)c(Cl)c3C2=O)c(=O)[nH]1
## Output significant reductions

---

# System: H3K27me3
# assay_comment: Western blot of cellular H3K27me3 levels
# Assay type: cell-based, mouse
# applied_conditions: MC3T3 cells, single dose 1μM, 24 hour treatment, relative to Gapdh
measured_metric: reduction in H3K27me3

>  <smiles_string>
CC[C@H](C)n1cc(C)c2c(C(=O)NCc3c(C)cc(C)[nH]c3=O)cc(-c3ccc(N4CCNCC4)nc3)cc21

>  <result>
2–3 fold

$$$$
>  <smiles_string>
CCCc1cc(C)[nH]c(=O)c1CNC(=O)c1cc(-c2ccc(N3CCN(C(C)C)CC3)nc2)cc2c1cnn2C(C)C

>  <result>
> 5 fold

$$$$
>  <smiles_string>
CCC(CC)n1ccc2c(C(=O)NCc3c(C)cc(C)[nH]c3=O)cc(C#N)cc21

>  <result>
2–3 fold

$$$$
>  <smiles_string>
Cc1cc(C)c(CNC(=O)c2cc(-c3ccc(N4CCN(C)CC4)nc3)cc3c2c(C)cn3C(C)C)c(=O)[nH]1

>  <result>
> 5 fold

$$$$

Consider the record given below.
## Input Request the reported reduction in H3K27me3 associated with CCN(c1cc(-c2ccc(CN3CCOCC3)cc2)cc(C(=O)NCc2c(C)cc(C)[nH]c2=O)c1C)C1CCOCC1
## Output > 5 fold

Reference for the values: paper PMC8217219
